System: CP217
Experiment: qHTS profiling for inhibitors of Plasmodium falciparum proliferation (AID 504749); also: nearly all actives have a fitted effect of over 60% in size
Conditions: P. falciparum in erythrocytes, SYBR Green DNA, 72 h; series mostly up to 28.7 µM
Results filed as inconclusive are left out. Activity calls are given as the source filed them. Calls follow the shape of the dose curve; as a rule, active = well fitted inhibition curve with a large enough effect; inconclusive = small, poorly fitted or top-dose-only effect; inactive = flat fitted curve, though single readings scatter.
Assign a class; possible classes are active, inactive

Status in this test for `NCCc1ccc(O)cc1` ? inactive

Status in this test for `Nc1ccccc1C(=O)O` ? inactive

Status in this test for CN1CCC(O)(c2ccc(F)cc2)C(C(=O)c2ccc(F)cc2)C1 (stereo unspecified) ? inactive

Status in this test for `O=C1OC(c2ccc(O)c(S(=O)(=O)O)c2)(c2ccc(O)c(S(=O)(=O)O)c2)c2c(Br)c(Br)c(Br)c(Br)c21` ? inactive

Status in this test for CN1C(=O)COc2c(C(=O)NC3CN4CCC3CC4)cc(Cl)cc21 (stereo unspecified) ? inactive

Status in this test for `CCCCCCC(=O)CCCCCC/C=C/C[C@@H](O)[C@H](O)[C@@](N)(CO)C(=O)O` ? inactive

Status in this test for COc1ccc2c(c1)C13CCCC[C@@H]1C(C2)N(C)CC3 (stereo partly specified) ? inactive

Status in this test for `CCC(C)(C)c1ccc(O)cc1` ? inactive

Status in this test for `C[C@]12CCC(=O)C=C1CC[C@@H]1[C@@H]2CC[C@]2(C)C(=O)CC[C@@H]12` ? inactive

Status in this test for `CCC1(c2ccccc2)C(=O)N(COC)C(=O)N(COC)C1=O` ? inactive

Status in this test for CC(C)(C)NCC(O)c1cc(Cl)c(N)c(C(F)(F)F)c1 (stereo unspecified) ? active

====

Test: qHTS to identify inhibitors of the type 1 interferon - major histocompatibility complex class I in skeletal muscle: primary screen against the NCATS Pharmaceutical Collection (AID 1347407);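 also: luminescence of HiBiT knocked into endogenous HLA-B as interferon-induced MHC class I level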
Details: human skeletal muscle cells, IFN-b-induced MHC-I HiBiT luminescence, 24 h; series mostly up to 45.9 µM
Results filed as inconclusive are left out. The source made the active and inactive calls. The call rests on the fitted dose curve; in most records, active means well fitted inhibition curve with a large enough effect; inconclusive means small, poorly fitted or top-dose-only effect; inactive means flat fitted curve, though single readings scatter.
Assign a class; possible classes are active, inactive

Status in this test for CC(Cc1ccccc1)NCCn1cnc2c1c(=O)n(C)c(=O)n2C (stereo not given) ? inactive

Status in this test for CC(C)N(CCC(C(N)=O)(c1ccccc1)c1ccccn1)C(C)C (stereo not given) ? inactive

Status in this test for `Nc1ccc([As](=O)(O)O)cc1` ? inactive

Status in this test for CCOC(=O)CC(SP(=S)(OC)OC)C(=O)OCC (stereo not given) ? inactive

Status in this test for COc1cccc2c1C(=O)c1c(O)c3c(c(O)c1C2=O)C[C@@](O)(C(=O)CO)CC3OC1CC(N2CCOC(OC)C2)C(O)C(C)O1 (stereo not given in full) ? active

====

Assay: qHTS for Inhibitors of the Functional Ribonucleoprotein Complex (vRNP) of Lymphocytic Choriomeningitis Arenaviruses (LCMV): Viability assay - alamar blue signal for LCMV Primary Screen (AID 1347085); also: nearly all actives have a fitted effect of over 80% in size
Conditions: alamar blue viability counter-screen, LCMV vRNP screen cells; series mostly up to 57.5 µM
Inconclusive results are not listed. Active and inactive are the calls of the source. Calls come from the whole dose curve; tested in HEK293 reporter line.
Assign a class; possible classes are t = active, f = inactive

Status in this test for CCOC(=O)C1=C(C)NC(C)=C(C(=O)OC)C1c1cccc([N+](=O)[O-])c1 (centres undefined) ? f

Status in this test for `CO[C@H]1C[C@@H]2CC[C@@H](C)[C@@](O)(O2)C(=O)C(=O)N2CCCC[C@@H]2C(=O)O[C@H]([C@@H](C)C[C@@H]2CC[C@H](O)[C@H](OC)C2)CC(=O)[C@H](C)C=C(C)[C@@H](O)[C@@H](OC)C(=O)[C@H](C)C[C@H](C)C=CC=CC=C1C` ? t

Status in this test for NS(=O)(=O)c1cc2c(cc1Cl)NC(C(Cl)Cl)NS2(=O)=O (centres undefined) ? f

Status in this test for `O=C(O)CNC(=O)c1ccccc1` ? f

Status in this test for `CC[N+](CC)(CC)CCOc1cccc(OCC[N+](CC)(CC)CC)c1OCC[N+](CC)(CC)CC` ? f

Status in this test for `CC(=O)c1ccc(O)c(C(N)=O)c1` ? f

Status in this test for `CS(=O)(=O)c1ccc([C@@H](O)[C@@H](CO)NC(=O)C(Cl)Cl)cc1` ? f

Status in this test for `CCN[C@@H](C)Cc1ccccc1` ? f

Status in this test for C[C@H](NC(CCc1ccccc1)C(=O)O)C(=O)N1CCC[C@H]1C(=O)O (some centres undefined) ? f

Status in this test for `CC(=O)OCC(=O)[C@@]1(O)CC[C@H]2[C@@H]3CCC4=CC(=O)CC[C@]4(C)[C@H]3C(=O)C[C@@]21C` ? f

Status in this test for `CCCCCCn1c(=O)c2c(ncn2C)n(C)c1=O` ? f

Status in this test for `O=C(O)c1[nH]n(-c2ccc(S(=O)(=O)O)cc2)c(=O)c1N=Nc1ccc(S(=O)(=O)O)cc1` ? f

Status in this test for `CCCCCCCCCCCCCCCC(=O)NCCO` ? f

Status in this test for `CCCCCCCCCCCCCCCCOP(=O)([O-])OCC[N+](C)(C)C` ? f

Status in this test for `Cn1c([N+](=O)[O-])cnc1COC(N)=O` ? f

Status in this test for `c1ccc2c(c1)sc1ccccc12` ? f

Status in this test for `CSCC[C@H](NC(=O)[C@H](Cc1c[nH]c2ccccc12)NC(=O)CCNC(=O)OC(C)(C)C)C(=O)N[C@@H](CC(=O)O)C(=O)N[C@@H](Cc1ccccc1)C(N)=O` ? f

Status in this test for `CC(C)OC(=O)OCOP(=O)(CO[C@H](C)Cn1cnc2c(N)ncnc21)OCOC(=O)OC(C)C` ? f

Status in this test for `Cc1c(N(C)CS(=O)(=O)O)c(=O)n(-c2ccccc2)n1C` ? f

Status in this test for `CN/C(=C\[N+](=O)[O-])NCCSCc1csc(CN(C)C)n1` ? f

Status in this test for `CCN(CC)CCNC(=O)COc1ccc(OC)cc1` ? f

Status in this test for `CCOCCn1c(C2CCN(CCc3ccc(C(C)(C)C(=O)O)cc3)CC2)nc2ccccc21` ? f

Status in this test for `CO[C@]12C[C@@H](COC(=O)c3cncc(Br)c3)CN(C)[C@@H]1Cc1cn(C)c3cccc2c13` ? f

Status in this test for `Nc1nc(N)c(-c2ccccc2)s1` ? f

Status in this test for `O=C(c1ccco1)N1CCNCC1` ? f

Status in this test for `O=C(O)[C@H](O)c1ccccc1` ? f

Status in this test for `Cc1cc(-n2nc3ccc(Cl)cc3n2)c(O)c(C(C)(C)C)c1` ? f

Status in this test for `NC(=O)c1cc[n+](CC2=C(C(=O)[O-])N3C(=O)[C@@H](NC(=O)Cc4cccs4)[C@H]3SC2)cc1` ? f

Status in this test for `C/C=C/C=N/NC(=O)c1ccncc1` ? f

Status in this test for `C[C@]12CCC(=O)C=C1CC[C@@H]1[C@@H]2CC[C@]2(C)C(=O)CC[C@@H]12` ? f

Status in this test for `CCCCCC[C@@H](CCC)C(=O)O` ? f

Status in this test for CCC(C)(CN(C)C)OC(=O)c1ccccc1 (centres undefined) ? f

Status in this test for `NS(=O)(=O)c1ccc(Cl)c(S(N)(=O)=O)c1` ? f

Status in this test for `O=C1O[C@H](CO)[C@@H](O)[C@H](O)[C@H]1O` ? f

Status in this test for Nc1ccn([C@@H]2O[C@H](CO)[C@@H](O)C2O)c(=O)n1 (some centres undefined) ? f

Status in this test for `O=C(CN1CCNCC1)NC1CCCCC1` ? f

Status in this test for `CCOC(N)=O` ? f

Status in this test for `Cc1cc2c(cc1S(N)(=O)=O)S(=O)(=O)CCC2` ? f

Status in this test for `CC(=O)Oc1cc(C(C)C)c(OCCN(C)C)cc1C` ? f

Status in this test for CC(C)(C)NCC(O)c1ccccc1Cl (centres undefined) ? f

Status in this test for `C[N+](C)(C)CCOC(N)=O` ? f

Status in this test for `Clc1cccc(Cl)c1NC1=NCCN1` ? f

Status in this test for `O=C(OCC1(COC(=O)c2cccnc2)CCCC(COC(=O)c2cccnc2)(COC(=O)c2cccnc2)C1O)c1cccnc1` ? f

Status in this test for `O=c1[nH]c(=O)n([C@H]2C[C@H](O)[C@@H](CO)O2)cc1Br` ? f

====

Molecular target: Thyroid hormone receptor beta (Homo sapiens) (UniProt P10828)
Sequence (P10828 whole entry, looked up): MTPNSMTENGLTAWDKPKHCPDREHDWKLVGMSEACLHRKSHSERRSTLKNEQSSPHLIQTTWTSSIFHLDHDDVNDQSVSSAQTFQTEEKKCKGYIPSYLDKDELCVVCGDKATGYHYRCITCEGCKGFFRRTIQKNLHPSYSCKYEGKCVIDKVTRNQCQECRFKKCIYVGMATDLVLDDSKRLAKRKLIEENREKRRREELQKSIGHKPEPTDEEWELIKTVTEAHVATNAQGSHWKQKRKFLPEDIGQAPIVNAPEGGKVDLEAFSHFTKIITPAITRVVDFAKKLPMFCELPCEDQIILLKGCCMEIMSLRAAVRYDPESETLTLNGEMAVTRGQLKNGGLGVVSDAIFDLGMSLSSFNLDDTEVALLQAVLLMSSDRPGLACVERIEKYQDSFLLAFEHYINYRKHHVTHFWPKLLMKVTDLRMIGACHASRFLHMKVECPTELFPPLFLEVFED
Assay: qHTS assay for small molecule antagonists of thyroid hormone receptor beta signaling (AID 588547);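 also: cells stimulated with 0.4 nM T3 agonist during compound exposure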
Conditions: TR-UAS-bla HEK293, beta-lactamase ratio, antagonist mode, 18 h
Source text: NIH Chemical Genomics Center [NCGC] U.S. Environmental Protection Agency [EPA] National Institutes of Environmental Health Sciences [NIEHS] National Toxicology Program [NTP] […] NCGC Assay Protocol Summary Using a beta-lactamase reporter-gene under control of the TR response element, a cell-based assay [GeneBLAzer TR-UAS-bla-GripTite assay developed by Invitrogen] was used to measure TR-beta signaling in antagonist mode. […] Detection; Fluorescence; Envision plate reader
Inconclusive results are not listed.
Everything with activity change % (negative = inhibition) lower than 10% is F; everything else, including exactly 10%, is T.

For this compound, is measured activity change % (negative = inhibition) 10% or higher? `C[C@]12CCC(=O)C=C1CC[C@@H]1[C@@H]2CC[C@]2(C)C(=O)CC[C@@H]12` T

For this compound, is measured activity change % (negative = inhibition) 10% or higher? `NCCc1ccc(O)cc1` F

For this compound, is measured activity change % (negative = inhibition) 10% or higher? O=P1(N(CCCl)CCCl)NCCCO1 (centres undefined) F

For this compound, is measured activity change % (negative = inhibition) 10% or higher? `Nc1ccccc1C(=O)O` T

For this compound, is measured activity change % (negative = inhibition) 10% or higher? `CCCC(C)(COC(N)=O)COC(N)=O` T

For this compound, is measured activity change % (negative = inhibition) 10% or higher? `COP(=S)(OC)Oc1ccc(SC)c(C)c1` F

For this compound, is measured activity change % (negative = inhibition) 10% or higher? `Oc1ccc(Cl)cc1` F

For this compound, is measured activity change % (negative = inhibition) 10% or higher? COC(=O)C(c1ccccc1)C1CCCCN1 (centres undefined) T

For this compound, is measured activity change % (negative = inhibition) 10% or higher? `Nc1nc(N)nc(NC2CC2)n1` F
